test system: SF-539 CNS; assay: NCI-60 one-dose screen, 48 h; conditions: 10 µM unless noted
This is part of a sample that, as a whole, favours compounds with a hit. Of some 83,000 tested, about 20% had one in any assay. The source made the active and inactive calls. How the source made its calls: active means growth percent below 10; inactive means the rest.
Outcome codes: true for active, false for inactive

| smiles_record | label_class |
| --- | --- |
| c1ccc(CCNc2c3ccccc3nc3ccccc23)cc1 | false |
| O=C(CCSc1nnc2n(Cc3ccccc3)c(=O)c3c4c(sc3n12)CCCC4)N1CCN(c2ccccc2)CC1 | false |
| COC(=O)c1c2c(c(C)[n+]([O-])c1C)C(=O)C(NCc1cccc(Cl)c1)=CC2=O | true |
| COc1cc(OC)c(/C=C/C(=O)c2c(O)cc(OC)c(C3CCN(C)CC3)c2OC)c(OC)c1 | true |
| CC1=C2[C@@H](CC1)[C@]1(C)O[C@@](C3CCCCC3)(C[C@H]1OC(=O)CO)[C@H]2OC(=O)/C=C/c1ccccc1 | false |
